Assayed System: human isoQC (S53-L382) (Homo sapiens, UniProt Q9NXS2)
Construct: enzymatically active region of human isoQC (S53-L382; see, e.g., Huang et al., 2011); GST-Enterokinase site (N, cleaved yes); made in house; host or cells: E. coli
Sequence (Q9NXS2 53-382): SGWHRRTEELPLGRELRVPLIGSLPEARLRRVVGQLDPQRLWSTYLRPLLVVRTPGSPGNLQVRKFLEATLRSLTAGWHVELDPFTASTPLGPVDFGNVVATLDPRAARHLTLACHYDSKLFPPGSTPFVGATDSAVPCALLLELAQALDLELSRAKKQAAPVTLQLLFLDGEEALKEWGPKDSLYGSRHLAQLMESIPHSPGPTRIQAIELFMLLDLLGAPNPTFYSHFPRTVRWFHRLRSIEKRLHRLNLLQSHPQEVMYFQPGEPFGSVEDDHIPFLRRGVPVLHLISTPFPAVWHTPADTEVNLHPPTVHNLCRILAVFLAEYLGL
Experiment Summary: Assay 1 - isoQC inhibition, fluorescent enzymatic assay (single concentration)
Type: biochemical
Test Settings: isoQC inhibition at 250 nM test compound; read-out: isoQc Inh. Assay No. 1
Below is a list of entries, each paired with its recorded inhibition at 0.25 µM value.

>>> print(df.to_string())
                                   compound                            assayed_system        recorded_metric  measured_value
0  Cc1c2c(nn1C)C(=O)N(c1ccc3[nH]cnc3c1)C2c1cc(F)cc(F)c1F (stereo not drawn) [FRPPO-013]  human isoQC (S53-L382) (Homo sapiens, UniProt Q9NXS2)  inhibition at 0.25 µM           > 40%
1  CCCOc1ccc(C2c3c(nn(C)c3C)C(=O)N2c2ccc3[nH]cnc3c2)c(Cl)c1 (stereo not drawn) [FRPPO-004]  human isoQC (S53-L382) (Homo sapiens, UniProt Q9NXS2)  inhibition at 0.25 µM           > 40%
2  Cc1c2c(nn1C)C(=O)N(c1ccc3[nH]cnc3c1)C2c1ccc(N2CCC(C)(C)C2=O)cc1 (stereo not drawn) [FRPPO-010]  human isoQC (S53-L382) (Homo sapiens, UniProt Q9NXS2)  inhibition at 0.25 µM           > 40%
3  Cc1c2c(nn1C)C(=O)N(c1ccc3[nH]cnc3c1)C2c1ccc(-c2ccccn2)cc1 (stereo not drawn) [FRPPO-014]  human isoQC (S53-L382) (Homo sapiens, UniProt Q9NXS2)  inhibition at 0.25 µM           > 40%
4  CCCOc1ccc(C2c3c(C)nn(C4CCC4)c3C(=O)N2c2ccc3[nH]cnc3c2)cc1 (stereo not drawn) [FRPPO-022]  human isoQC (S53-L382) (Homo sapiens, UniProt Q9NXS2)  inhibition at 0.25 µM           ≤ 40%

Lab note: Cc1c2c(nn1C)C(=O)N(c1ccc3[nH]cnc3c1)C2c1ccc(N2CCCC2=O)cc1 (stereo not drawn) [FRPPO-016] gave inhibition at 0.25 µM of > 40%

Lab note: Cc1c2c(nn1C)C(=O)N(c1ccc3[nH]cnc3c1)C2c1ccc(N2CCCCC2=O)cc1 (stereo not drawn) [FRPPO-017] gave inhibition at 0.25 µM of > 40%

Lab note: CCCOc1ccc(C2c3c(nn(COC)c3C)C(=O)N2c2ccc3[nH]cnc3c2)cc1 (stereo not drawn) [FRPPO-031] gave inhibition at 0.25 µM of > 40%

---

Assayed System: recombinant human QC (Homo sapiens, UniProt Q16769)
Construct: His6 (N)
Sequence (Q16769 29-361): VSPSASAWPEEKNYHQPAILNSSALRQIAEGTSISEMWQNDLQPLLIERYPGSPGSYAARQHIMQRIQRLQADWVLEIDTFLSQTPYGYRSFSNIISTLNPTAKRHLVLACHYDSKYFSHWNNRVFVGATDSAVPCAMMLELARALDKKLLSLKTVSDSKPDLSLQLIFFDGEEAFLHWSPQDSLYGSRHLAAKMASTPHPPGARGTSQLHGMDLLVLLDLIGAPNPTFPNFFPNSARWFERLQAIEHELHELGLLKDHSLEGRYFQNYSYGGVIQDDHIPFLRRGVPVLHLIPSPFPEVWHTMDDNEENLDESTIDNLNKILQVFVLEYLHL
Experiment Summary: Assay 4 - QC potency, mass spectrometry-based enzymatic potency assay
Test Settings: mass spectrometry read-out; read-out: QC Pot. Assay No. 4
Below is a list of entries, each paired with its recorded IC50 value.

>>> print(df.to_string())
                                   molecule  measured_value
0  CCCOc1ccc(C2c3c(nn(CC(F)F)c3C)C(=O)N2c2ccc3[nH]cnc3c2)cc1 (centres unmarked) [FRPPO-032]  100 to 5000 nM
1  CCCOc1ccc(C2c3c(nn(C4CCOCC4)c3C)C(=O)N2c2ccc3[nH]cnc3c2)cc1 (centres unmarked) [FRPPO-035]  100 to 5000 nM
2  CCCOc1ccc(C2c3c(nn(C)c3C)C(=O)N2c2ccn3ccnc3c2)cc1 (centres unmarked) [FRPPO-009]  100 to 5000 nM
3  COc1ccc(C2c3c(nn(C)c3C)C(=O)N2c2ccc3[nH]cnc3c2)cc1O (centres unmarked) [FRPPO-018]         < 25 nM
4  Cc1c2c(nn1C)C(=O)N(c1ccc3[nH]cnc3c1)C2c1cccc(F)c1F (centres unmarked) [FRPPO-012]    25 to 100 nM

Lab note: Cc1c2c(nn1C)C(=O)N(c1ccc3[nH]cnc3c1)C2c1ccc(N2CCCC2=O)cc1 (centres unmarked) [FRPPO-016] gave IC50 of 25 to 100 nM

Lab note: CCCOc1ccc(C2c3c(nn(C(C)C)c3C)C(=O)N2c2ccc3[nH]cnc3c2)cc1 (centres unmarked) [FRPPO-030] gave IC50 of 100 to 5000 nM

Lab note: CCCOc1ccc(C2c3c(nn(C4CCC4)c3C)C(=O)N2c2ccc3[nH]cnc3c2)cc1 (centres unmarked) [FRPPO-033] gave IC50 of 100 to 5000 nM

---

Below is a list of entries, each paired with its recorded IC50 value.
Assayed System: human isoQC (S53-L382) (Homo sapiens, UniProt Q9NXS2)
Construct: enzymatically active region of human isoQC (S53-L382; see, e.g., Huang et al., 2011); GST-Enterokinase site (N, cleaved yes); made in house; host or cells: E. coli
Experiment Summary: Assay 2 - isoQC potency, mass spectrometry-based enzymatic potency assay
Assay type: biochemical
Test Settings: mass spectrometry read-out, 7.5 nM isoQC, 10 μM H-Gln-AMC; read-out: isoQc Pot. Assay No. 2
Procedure: The Golgi luminal, enzymatically active region of human isoQC (S53-L382; see, e.g., Huang et al., 2011) was obtained by expression in E. coli of an N-terminally GST-Enterokinase and C-terminally 6×His tagged construct in the pET41(+) vector and subsequent purification using talon beads and GST beads, enterokinase digestion and further purification with a final formulation in 25 mM Tris pH 8.0/150 mM NaCl/1 mM TCEP. […]

Reference set, count: 7
>>> df
                                   molecule  measured_value
0  Cc1c2c(nn1C)C(=O)N(c1ccc3[nH]cnc3c1)C2c1ccc(N2CCC(C)(C)C2=O)cc1 (centres unmarked)    25 to 100 nM
1  CCCOc1ccc(C2c3c(nn(C)c3CC)C(=O)N2c2ccc3[nH]cnc3c2)cc1 (centres unmarked)    25 to 100 nM
2  Cc1c2c(nn1C)C(=O)N(c1ccc3[nH]cnc3c1)C2c1ccc(N2CCCCCC2=O)cc1 (centres unmarked)    25 to 100 nM
3  Cc1c2c(nn1C)C(=O)N(c1ccc3[nH]cnc3c1)C2c1ccc(OCC(C)(F)F)c(F)c1F (centres unmarked)    25 to 100 nM
4  Cc1c2c(nn1C)C(=O)N(c1ccc3[nH]cnc3c1)C2c1ccc(-c2ccccn2)cc1 (centres unmarked)         < 25 nM
5  COc1ccc(C2c3c(nn(C)c3C)C(=O)N2c2ccc3[nH]cnc3c2)cc1O (centres unmarked)         < 25 nM
6  Cc1c2c(nn1C)C(=O)N(c1ccc3[nH]cnc3c1)C2c1ccc(N2CCS(=O)(=O)CC2)cc1 (centres unmarked)         < 25 nM

Lab note: CCCOc1ccc(C2c3c(nn(C(C)C)c3C)C(=O)N2c2ccc3[nH]cnc3c2)cc1 (centres unmarked) gave IC50 of 100 to 5000 nM

---

Assayed System: Recombinant QC enzyme (residues 33-361 of uniprot ID Q16769) (Homo sapiens, UniProt Q16769)
Construct: bacterial expression of residues 33-361 of uniprot ID Q16769; His tag (cleaved yes)
Sequence (Q16769 33-361): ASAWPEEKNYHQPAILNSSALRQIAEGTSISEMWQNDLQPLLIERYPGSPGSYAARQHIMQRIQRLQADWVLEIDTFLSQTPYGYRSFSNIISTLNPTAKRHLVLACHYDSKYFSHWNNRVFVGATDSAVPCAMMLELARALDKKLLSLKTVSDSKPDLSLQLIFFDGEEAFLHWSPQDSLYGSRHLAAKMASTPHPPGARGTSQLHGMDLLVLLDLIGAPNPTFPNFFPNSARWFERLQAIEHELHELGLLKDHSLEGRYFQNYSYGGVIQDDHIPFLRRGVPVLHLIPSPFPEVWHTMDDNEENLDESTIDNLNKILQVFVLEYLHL
Experiment Summary: Assay 5 - QC potency, fluorescent enzymatic assay
Test Settings: fluorescent read-out; read-out: QC Pot. Assay No. 5
Experimental: Recombinant QC enzyme was produced by bacterial expression of residues 33-361 of uniprot ID Q16769, fused to a His tag, codon optimized and cloned into the pET32a plasmid backbone. […] Pyroglutamylation was measured by conversion of glutamine-4-amino-7-methylcoumarine (H-Gln-AMC, Bachem) to pyroglutamyl-AMC, which is subsequently a specific substrate for pyroglutamylaminopeptidase (pGAPase, Qiagen), releasing free AMC which can be fluorescently detected. […]
pIC50: −log10 of the molar value.
Below is a list of entries, each paired with its recorded pIC50 value.

In [3]: df
Out[3]:
                                   compound  recorded_metric  measured_value
0  Cc1nn(C)c2c1C(c1ccc(-c3cnn(C(F)(F)F)c3)cc1F)N(c1ccc3[nH]cnc3c1)C2=O (centres unmarked)            pIC50    5.30 to 7.00
1  Cc1noc2c1C(c1ccc(-c3cnn(C(F)(F)F)c3)cc1F)N(c1ccc3[nH]cnc3c1)C2=O (centres unmarked)            pIC50    5.30 to 7.00

Lab note: COc1n[nH]c2c1C(c1ccc(N3CCC(F)(F)C3)cc1F)N(c1ccc3[nH]cnc3c1)C2=O (centres unmarked) gave pIC50 of 7.00 to 7.60

Lab note: Cc1[nH]nc2c1C(c1ccc(N3CCC(F)(F)C3)c(F)c1F)N(c1ccc3[nH]cnc3c1)C2=O (centres unmarked) gave pIC50 of 7.00 to 7.60

Lab note: O=C1c2[nH]ncc2C(c2ccc(N3CCC(F)(F)C3)cc2F)N1c1ccc2[nH]cnc2c1 (centres unmarked) gave pIC50 of 5.30 to 7.00

Lab note: Cc1nn(C)c2c1C(c1ccc(-n3cc(C(F)(F)F)cn3)cc1F)N(c1ccc3[nH]cnc3c1)C2=O (centres unmarked) gave pIC50 of 5.30 to 7.00

Lab note: Cc1nn(C)c2c1C(c1ccc(-c3cnc(C(F)(F)F)s3)cc1F)N(c1ccc3[nH]cnc3c1)C2=O (centres unmarked) gave pIC50 of 5.30 to 7.00

Lab note: Cc1onc2c1C(c1ccc(-c3cnn(C(F)(F)F)c3)cc1F)N(c1ccc3[nH]cnc3c1)C2=O (centres unmarked) gave pIC50 of 7.00 to 7.60

The reported numbers originate from patent US20230077723A1.
